Each entry below carries its recorded pEC50.
# System: Nrf2
# assay_protocol: Evaluation of Nrf2 activation ability (Nrf2d-LacZ / Keap1 HEK293 reporter, Beta-Glo luminescence)
# Type: cell-based, human
# measurement_context: rated A/B/C, Pharmacological Test Example 1
# Protocol: HEK293 cells constantly expressing Nrf2d-LacZ (human Nrf2 degron region fused to LacZ; Hirotsu et al, Genes to Cell, Vol. 16, pp. 406-415 (2011)) and human Keap1 were seeded 7,000 cells/27 μl/well on 384-well plates (Corning 384 Well Flat Clear Bottom White Polystyrene TC-Treated Microplates, Cat. #3707), and cultured overnight at 5% CO2, 37° C. in DMEM medium containing 10% FBS, 100 U/mL penicillin and 100 μg/mL streptomycin. […]
pEC50: −log10 of the molar value.

Below, 3 molecules whose answers are already recorded.
# molecule, attribute_measured, observed
measured = [
    ("[O-][s+]1nc(O)cc1-n1ncc2ccc(C3=CCC(F)(F)CC3)cc21 (stereo not drawn)", "pEC50", "5.30 to 6.00"),
    ("CN1CCOc2cc(-c3ccc4c(cnn4-c4cc(O)n[s+]4[O-])c3)c(C#N)nc21 (stereo not drawn)", "pEC50", "> 6.00"),
    ("CN1C(=O)CCc2cc(-c3ccc4c(cnn4-c4cc(O)n[s+]4[O-])c3)cnc21 (stereo not drawn)", "pEC50", "5.00 to 5.30"),
]

Data point: [O-][s+]1nc(O)cc1-n1ncc2cc(-c3cn[nH]c3)ccc21 (stereo not drawn) ; pEC50 = 5.00 to 5.30

Data point: Cc1cncc(-c2ccc3c(cnn3-c3cc(O)n[s+]3[O-])c2)c1 (stereo not drawn) [Example 49] ; pEC50 = > 6.00

Data point: COc1ncc(-c2ccc3c(cnn3-c3cc(O)n[s+]3[O-])c2)cc1Cl (stereo not drawn) ; pEC50 = > 6.00

Data point: [O-][s+]1nc(O)cc1-n1ncc2cc(-c3ccc(N4CCCC4)nc3)ccc21 (stereo not drawn) ; pEC50 = 5.30 to 6.00

Data point: [O-][s+]1nc(O)cc1-n1ncc2ccccc21 (stereo not drawn) [Example 17] ; pEC50 = 5.00 to 5.30

Measured values drawn from patent US10201531B2 for this set.
